Entry source: patent US9873883B2

Target: Glycine max (soybean) EPSP synthase DGT-1 variant DGT-1 v6 (G→A) (Glycine max, UniProt I1J7U9, G182A)
Sequence (I1J7U9 entry or part of it G182A): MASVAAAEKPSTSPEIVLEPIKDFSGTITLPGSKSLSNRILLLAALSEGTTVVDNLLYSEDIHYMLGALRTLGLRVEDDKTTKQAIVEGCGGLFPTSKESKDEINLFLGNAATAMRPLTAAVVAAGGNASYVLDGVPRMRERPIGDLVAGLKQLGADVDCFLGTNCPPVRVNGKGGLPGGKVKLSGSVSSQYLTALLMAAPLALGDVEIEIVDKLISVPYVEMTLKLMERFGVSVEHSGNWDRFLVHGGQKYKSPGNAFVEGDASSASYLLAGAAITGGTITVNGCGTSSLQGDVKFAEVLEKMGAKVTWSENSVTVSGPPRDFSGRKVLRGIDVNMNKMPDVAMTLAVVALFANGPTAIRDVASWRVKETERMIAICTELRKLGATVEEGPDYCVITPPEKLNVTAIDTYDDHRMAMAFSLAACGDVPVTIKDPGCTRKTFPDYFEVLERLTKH
Experiment: In vitro kinetic assay (inorganic phosphate production, malachite green)
Format: biochemical
Conditions: IC50 (glyphosate), at 1 mM PEP
pIC50: −log10 of the molar value.

compound	pIC50
O=C(O)CNCP(=O)(O)O [glyphosate, N-(phosphonomethyl)glycine]	1.68

----------
Molecular target: Brassica napus (canola) EPSP synthase DGT-3 (GENBANK P17688) variant DGT-3 v8 (T→I, P→S; TIPS) (Brassica napus, UniProt P17688, P178S/T174I)
Construct: made in house; host or cells: E. coli Rosetta2 (DE3)
Sequence (P17688 73-516 T174I/P178S, one chain of several): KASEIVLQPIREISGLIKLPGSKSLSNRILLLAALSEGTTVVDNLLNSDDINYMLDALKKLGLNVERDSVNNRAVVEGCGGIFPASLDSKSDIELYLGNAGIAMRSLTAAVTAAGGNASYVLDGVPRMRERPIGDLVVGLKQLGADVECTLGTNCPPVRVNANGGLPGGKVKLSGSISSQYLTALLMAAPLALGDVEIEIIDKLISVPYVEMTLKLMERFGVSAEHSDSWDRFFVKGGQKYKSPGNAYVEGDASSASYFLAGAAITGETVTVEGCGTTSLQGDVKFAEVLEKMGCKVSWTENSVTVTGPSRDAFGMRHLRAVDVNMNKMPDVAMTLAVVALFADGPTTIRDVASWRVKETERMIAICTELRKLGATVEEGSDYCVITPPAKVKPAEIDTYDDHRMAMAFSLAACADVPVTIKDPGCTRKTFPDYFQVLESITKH
Experiment: In vitro kinetic assay (inorganic phosphate production, malachite green)
Type: biochemical
Conditions: tolerance to glyphosate, PEP concentration not given
quantity.kind: IC50

compound	quantity.kind	reported.result
O=C(O)CNCP(=O)(O)O [glyphosate, N-(phosphonomethyl)glycine]	IC50	3 to 6 mM
